# tested.system: T1, human c-Met (Sino Biological) (human, UniProt P08581 25-932, limits assumed)
# T1 construct: Analyte in the Biacore assay; also called antigen (c-Met); printed as "human c-Met antibody (Sino Biological, Beijing, China)"
# T1 sequence (P08581 25-932 limits assumed): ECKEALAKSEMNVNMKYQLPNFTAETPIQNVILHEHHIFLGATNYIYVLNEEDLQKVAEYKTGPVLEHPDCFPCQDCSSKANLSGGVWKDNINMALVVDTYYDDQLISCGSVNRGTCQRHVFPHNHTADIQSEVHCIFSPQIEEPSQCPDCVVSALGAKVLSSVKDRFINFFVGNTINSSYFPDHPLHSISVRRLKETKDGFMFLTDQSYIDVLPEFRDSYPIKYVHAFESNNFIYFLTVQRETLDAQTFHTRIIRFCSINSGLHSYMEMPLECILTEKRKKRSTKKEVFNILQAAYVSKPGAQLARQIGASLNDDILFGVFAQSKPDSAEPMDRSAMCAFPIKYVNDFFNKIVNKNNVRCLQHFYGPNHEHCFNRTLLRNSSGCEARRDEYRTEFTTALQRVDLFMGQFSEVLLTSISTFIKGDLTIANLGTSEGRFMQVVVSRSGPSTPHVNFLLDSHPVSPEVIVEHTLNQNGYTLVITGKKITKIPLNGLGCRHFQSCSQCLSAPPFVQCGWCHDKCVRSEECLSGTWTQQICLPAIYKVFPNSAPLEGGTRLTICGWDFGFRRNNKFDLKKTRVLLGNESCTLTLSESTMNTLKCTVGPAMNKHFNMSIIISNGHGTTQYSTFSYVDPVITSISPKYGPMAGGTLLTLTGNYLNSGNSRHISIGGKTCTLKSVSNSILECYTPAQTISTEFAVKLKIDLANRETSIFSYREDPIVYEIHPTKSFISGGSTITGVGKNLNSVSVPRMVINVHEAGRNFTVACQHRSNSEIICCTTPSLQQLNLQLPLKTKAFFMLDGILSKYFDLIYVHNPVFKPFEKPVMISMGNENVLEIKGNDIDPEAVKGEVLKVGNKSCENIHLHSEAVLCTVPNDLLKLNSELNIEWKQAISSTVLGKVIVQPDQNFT
# method: derived from the Biacore KD, normalised to VH0/Vk0
# key: entry, value: Index 2 (binding affinity, inverse KD relative to VH0/Vk0)
Give the figure only, with no unit attached.

# binder, result
measured = [
    ("VH5/Vk2 (antibody, IgG1, V domains shown, Full IgG1/kappa expressed in HEK 293 EBNA cells) VH: QVQLVQSGAEVKKPGSSVKVSCQGSGYSFPTHWITWVRQAPGQGLEWMGTIDPTDSYNFYGPSFQGRVTITADSSTSTAYMELSSLRSEDTAVYYCARDGNYYDSRGYYYDTFDMWGQGTLVTVSS VL: DIQMTQSPSSLSASVGDRVTITCRASQGISTYLAWYQQKPGKAPKLLIYSASTLESGVPSRFSGSGSGTDFTLTISSLQPEDFATYYCQQADSFPLTFGGGTKVEIK", 1.24),
    ("VH6/Vk2 (antibody, IgG1, V domains shown, Full IgG1/kappa expressed in HEK 293 EBNA cells) VH: QVQLVQSGAEVKKPGSSVKVSCKASGYSFPTHWITWVRQAPGQGLEWMGTIDPTDSYNFYGPSFQGRVTITADKSTSTAYMELSSLRSEDTAVYYCARDGNYYDSRGYYYDTFDMWGQGTLVTVSS VL: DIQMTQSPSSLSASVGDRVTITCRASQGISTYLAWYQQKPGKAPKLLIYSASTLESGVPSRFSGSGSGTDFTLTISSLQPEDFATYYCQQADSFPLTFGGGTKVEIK", 1.18),
    ("VH5/Vk0 (antibody, IgG1, V domains shown, Full IgG1/kappa expressed in HEK 293 EBNA cells) VH: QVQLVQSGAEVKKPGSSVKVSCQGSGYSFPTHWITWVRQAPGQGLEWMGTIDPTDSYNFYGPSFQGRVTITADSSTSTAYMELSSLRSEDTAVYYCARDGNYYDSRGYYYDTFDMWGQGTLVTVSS VL: DIQMTQSPSFLSASVGDRVTITCRASQGISTYLAWYQQKPGTAPKLLIYSASTLESGVPSRFSGSGSGTDFTLTISSLQPEDSATYYCQQADSFPLTFGGGTKVEIK", 1.48),
    ("VH0/Vk0 (antibody, IgG1, V domains shown, Full IgG1/kappa with the variable domains of 1E4; also called 1E4 antibody variant including the constant domain where the residues were substituted) VH: QVQLVQSGAEVKKPGESLRISCQGSGYSFPTHWITWVRQMPGKGLEWMGTIDPTDSYNFYGPSFQGHVTISADSSSSTAYLQWSSLKASDTAMYYCARDGNYYDSRGYYYDTFDMWGQGTLVTVSS VL: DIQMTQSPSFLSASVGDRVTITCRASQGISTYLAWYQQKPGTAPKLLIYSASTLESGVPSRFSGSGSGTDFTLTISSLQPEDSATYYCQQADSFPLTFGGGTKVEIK", 1),
    ("VH2/Vk2 (antibody, IgG1, V domains shown, Full IgG1/kappa expressed in HEK 293 EBNA cells) VH: EVQLVQSGAEVKKPGESLKISCKGSGYSFPTHWITWVRQMPGKGLEWMGTIDPTDSYNFYGPSFQGQVTISADKSISTAYLQWSSLKASDTAMYYCARDGNYYDSRGYYYDTFDMWGQGTLVTVSS VL: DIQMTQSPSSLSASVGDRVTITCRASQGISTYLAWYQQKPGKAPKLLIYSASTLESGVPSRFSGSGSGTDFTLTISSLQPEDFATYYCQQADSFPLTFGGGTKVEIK", 1.04),
]

Data request: Complete the entry with Index 2 (binding affinity, inverse KD relative to VH0/Vk0) for VH2/Vk0 (antibody, IgG1, V domains shown, Full IgG1/kappa expressed in HEK 293 EBNA cells) VH: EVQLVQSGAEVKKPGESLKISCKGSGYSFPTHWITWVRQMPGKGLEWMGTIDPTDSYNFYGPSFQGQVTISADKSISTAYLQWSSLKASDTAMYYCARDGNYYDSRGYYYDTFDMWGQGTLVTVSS VL: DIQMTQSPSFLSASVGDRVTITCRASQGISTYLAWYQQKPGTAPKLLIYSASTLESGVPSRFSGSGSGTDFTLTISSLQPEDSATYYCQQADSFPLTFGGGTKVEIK
Data returned: 0.974

Data request: Write down Index 2 (binding affinity, inverse KD relative to VH0/Vk0) measured for item VH3/Vk2 (antibody, IgG1, V domains shown, Full IgG1/kappa expressed in HEK 293 EBNA cells) VH: QVQLVQSGAEVKKPGSSVKVSCQGSGYSFPTHWITWVRQAPGQGLEWMGTIDPTDSYNFYGPSFQGRVTITADSSTSTAYLQWSSLKASDTAMYYCARDGNYYDSRGYYYDTFDMWGQGTLVTVSS VL: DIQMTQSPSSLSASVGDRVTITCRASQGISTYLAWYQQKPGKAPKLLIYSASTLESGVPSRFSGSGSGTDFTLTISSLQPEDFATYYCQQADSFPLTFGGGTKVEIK
Data returned: 1.09

Data request: Supply reported Index 2 (binding affinity, inverse KD relative to VH0/Vk0) belonging to this binder: VH6/Vk0 (antibody, IgG1, V domains shown, Full IgG1/kappa expressed in HEK 293 EBNA cells) VH: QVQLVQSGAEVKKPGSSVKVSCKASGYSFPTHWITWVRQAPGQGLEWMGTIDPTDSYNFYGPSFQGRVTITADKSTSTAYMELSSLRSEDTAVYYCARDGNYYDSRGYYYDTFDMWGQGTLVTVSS VL: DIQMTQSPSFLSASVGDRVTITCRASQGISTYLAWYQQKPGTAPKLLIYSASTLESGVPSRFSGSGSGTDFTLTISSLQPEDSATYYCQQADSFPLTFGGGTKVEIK
Data returned: 1.26

Data request: Provide Index 2 (binding affinity, inverse KD relative to VH0/Vk0) value for the following binder: VH4/Vk5 (antibody, IgG1, V domains shown, Full IgG1/kappa expressed in HEK 293 EBNA cells) VH: QVQLVQSGAEVKKPGSSVKVSCQGSGYSFPTHWITWVRQAPGQGLEWMGTIDPTDSYNFYGPSFQGRVTITADSSTSTAYMELSSLRSEDTAMYYCARDGNYYDSRGYYYDTFDMWGQGTLVTVSS VL: EIVLTQSPGTLSLSPGERATLSCRASQGISTYLAWYQQKPGQAPRLLIYSASTLESGIPDRFSGSGSGTDFTLTISRLEPEDFATYYCQQADSFPLTFGGGTKVEIK
Data returned: 0.989
